target: human TAS1R2-WT/TAS1R3-L823F (Homo sapiens, UniProt Q7RTX0+Q8TE23, L823F); construct: expressed in transfected cells; host or cells: HEK293T stably expressing Gα16gust44; experiment: Calcium mobilisation assay, TAS1R2-WT with TAS1R3 variant L823F; assay type: cell-based; settings: read-out: EC50
Sequence (Q8TE23 20-839): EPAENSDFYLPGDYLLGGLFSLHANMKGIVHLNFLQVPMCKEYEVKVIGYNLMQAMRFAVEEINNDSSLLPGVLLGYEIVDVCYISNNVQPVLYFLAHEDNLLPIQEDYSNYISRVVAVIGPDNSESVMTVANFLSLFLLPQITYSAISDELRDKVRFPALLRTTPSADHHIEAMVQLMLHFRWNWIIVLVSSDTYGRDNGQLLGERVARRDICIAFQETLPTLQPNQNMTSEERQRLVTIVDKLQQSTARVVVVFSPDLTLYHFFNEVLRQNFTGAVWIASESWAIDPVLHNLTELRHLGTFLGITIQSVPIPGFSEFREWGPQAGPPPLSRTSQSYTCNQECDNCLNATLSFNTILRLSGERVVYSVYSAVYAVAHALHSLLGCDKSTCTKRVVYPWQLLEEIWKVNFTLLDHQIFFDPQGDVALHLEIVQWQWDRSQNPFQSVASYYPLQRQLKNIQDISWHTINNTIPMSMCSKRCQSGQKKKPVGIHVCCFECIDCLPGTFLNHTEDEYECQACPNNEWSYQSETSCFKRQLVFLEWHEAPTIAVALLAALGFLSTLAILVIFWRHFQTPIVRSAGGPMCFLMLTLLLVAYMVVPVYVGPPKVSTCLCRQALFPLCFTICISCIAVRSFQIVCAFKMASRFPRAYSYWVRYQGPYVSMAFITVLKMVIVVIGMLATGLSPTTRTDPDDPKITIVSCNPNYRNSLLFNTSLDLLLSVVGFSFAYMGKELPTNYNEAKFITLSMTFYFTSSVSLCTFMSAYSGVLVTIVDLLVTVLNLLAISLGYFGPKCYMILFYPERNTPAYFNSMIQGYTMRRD
Sequence (Q7RTX0 21-852 L823F): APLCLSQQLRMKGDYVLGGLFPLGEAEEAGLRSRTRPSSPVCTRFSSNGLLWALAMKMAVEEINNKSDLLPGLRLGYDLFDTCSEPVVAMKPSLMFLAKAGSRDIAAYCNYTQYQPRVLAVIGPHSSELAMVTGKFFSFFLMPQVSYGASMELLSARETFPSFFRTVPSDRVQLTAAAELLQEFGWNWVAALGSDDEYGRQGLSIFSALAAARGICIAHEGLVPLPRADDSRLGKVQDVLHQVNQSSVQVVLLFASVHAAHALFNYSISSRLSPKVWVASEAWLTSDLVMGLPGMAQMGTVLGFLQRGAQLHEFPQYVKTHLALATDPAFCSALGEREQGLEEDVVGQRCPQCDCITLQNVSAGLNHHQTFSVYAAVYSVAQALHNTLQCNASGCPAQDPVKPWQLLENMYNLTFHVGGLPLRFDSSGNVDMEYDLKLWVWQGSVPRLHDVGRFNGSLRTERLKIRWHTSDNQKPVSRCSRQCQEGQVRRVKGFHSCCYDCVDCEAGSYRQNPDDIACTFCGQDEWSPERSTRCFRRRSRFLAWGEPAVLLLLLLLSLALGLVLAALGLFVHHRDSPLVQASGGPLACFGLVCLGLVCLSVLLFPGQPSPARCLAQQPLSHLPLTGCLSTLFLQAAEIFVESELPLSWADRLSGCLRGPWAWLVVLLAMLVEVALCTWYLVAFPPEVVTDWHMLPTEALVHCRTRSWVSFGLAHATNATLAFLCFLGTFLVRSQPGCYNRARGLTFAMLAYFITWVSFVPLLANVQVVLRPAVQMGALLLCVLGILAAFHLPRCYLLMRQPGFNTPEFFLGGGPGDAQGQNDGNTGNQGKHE
pEC50: −log10 of the molar value.
Quantity: pEC50

Please review the entries below; each comes with its answer.
Compound	Quantity	Number
C=C1C[C@@]23CC[C@H]4[C@@](C)(CCC[C@@]4(C)C(=O)O[C@@H]4O[C@H](CO)[C@@H](O)[C@H](O[C@@H]5O[C@H](CO)[C@@H](O)[C@H](O)[C@H]5O)[C@H]4O[C@@H]4O[C@H](CO)[C@@H](O)[C@H](O)[C@H]4O)[C@@H]2CC[C@]1(O[C@@H]1O[C@H](CO)[C@@H](O)[C@H](O[C@@H]2O[C@H](CO)[C@@H](O)[C@H](O)[C@H]2O)[C@H]1O[C@@H]1O[C@H](CO)[C@@H](O)[C@H](O)[C@H]1O)C3 [Rebaudioside M, rebaudioside M]	pEC50	4.48
CC1=CC(=O)NS(=O)(=O)O1	pEC50	3.42
COC(=O)[C@H](Cc1ccccc1)NC(=O)[C@H](CC(=O)O)NCCC(C)(C)C	pEC50	5.96
C[C@H](CC[C@@H](O[C@@H]1O[C@H](CO[C@@H]2O[C@H](CO)[C@@H](O)[C@H](O)[C@H]2O)[C@@H](O)[C@H](O)[C@H]1O[C@@H]1O[C@H](CO)[C@@H](O)[C@H](O)[C@H]1O)C(C)(C)O)[C@H]1CC[C@@]2(C)[C@@H]3CC=C4[C@@H](CC[C@H](O[C@@H]5O[C@H](CO[C@@H]6O[C@H](CO)[C@@H](O)[C@H](O)[C@H]6O)[C@@H](O)[C@H](O)[C@H]5O)C4(C)C)[C@]3(C)[C@H](O)C[C@]12C [Mogroside V, mogroside V]	pEC50	4.66
O=S(=O)(O)NC1CCCCC1 [Cyclamate, cyclamate]	pEC50	2.86

P: OC[C@H]1O[C@H](O[C@]2(CCl)O[C@H](CCl)[C@@H](O)[C@@H]2O)[C@H](O)[C@@H](O)[C@H]1Cl
Q: C=C(C)[C@@H]1CC=C(/C=N/O)CC1
R: COc1ccc(CCC(=O)c2c(O)cc(O[C@@H]3O[C@H](CO)[C@@H](O)[C@H](O)[C@H]3O[C@@H]3O[C@@H](C)[C@H](O)[C@@H](O)[C@H]3O)cc2O)cc1O [NHDC, neohesperidin dihydrochalcone]
Exercise: Rank entries according to their pEC50, from the largest number down. # the answer lists labels in the order requested
Key: Q, R, P
(Q: 5.00, R: 4.37, P: 3.87)
